- Organism: Rattus norvegicus
- Assay Procedure: DrugMatrix - Regimen: Daily Repeat
- Assay type: toxicity, organism-based, Sprague-Dawley
- Parameters: regimen Daily Repeat, gender Male, age 6-8 weeks
- Condition Parameters: in vivo, po, 0 mg/kg, 72 h, tissue Blood, route oral GAVAGE, dose level Control, time 3 day, vehicle 100 % WATER
compounds and their reported NUCLEATED RED BLOOD CELLS

Take a look at these entries with their results.
1) NC(=O)c1cccnc1 [NIACINAMIDE]	0.17 /100WBC
2) CCN(C(C)=O)c1cccc(-c2ccnc3c(C#N)cnn23)c1	0 /100WBC
3) CNC1=Nc2ccc(Cl)cc2C(c2ccccc2)=[N+]([O-])C1 [CHLORDIAZEPOXIDE]	0.33 /100WBC

Next, consider the following compound.
stdin: Which value of NUCLEATED RED BLOOD CELLS has been reported for O=c1[nH]c(=O)n(C2CCCO2)cc1F (centres undefined) in the records?
stdout: 0 /100WBC

====

- Organism: Rattus norvegicus
- Assay Procedure: DrugMatrix - Regimen: Daily Repeat
- Format: toxicity, organism-based, Sprague-Dawley
- Set-up: regimen Daily Repeat, gender Male, age 6-8 weeks
- Condition Parameters: in vivo, po, 0 mg/kg, 72 h, tissue Blood, route oral GAVAGE, dose level Control, time 3 day, […]
Observation Type: MONOCYTE (%)
The figure you give is taken to be in %; do not add the unit.

Take a look at these entries with their results.
1) CC(C)c1c(C(=O)Nc2ccccc2)c(-c2ccccc2)c(-c2ccc(F)cc2)n1CC[C@@H](O)C[C@@H](O)CC(=O)O [ATORVASTATIN]	0.17
2) CCc1ccc(CCOc2ccc(CC3SC(=O)NC3=O)cc2)nc1 (stereo not drawn) [PIOGLITAZONE]	1.5

Next, consider the following molecule.
stdin: Which value of MONOCYTE has been reported for Cc1ccc(C)c(OCCCC(C)(C)C(=O)O)c1 [GEMFIBROZIL] in the records?
stdout: 1.67

====

- Organism: Rattus norvegicus
- Assay Procedure: DrugMatrix - Regimen: Daily Repeat
- Format: toxicity, organism-based, Sprague-Dawley
- Set-up: regimen Daily Repeat, gender Male, age 6-8 weeks
- Condition Parameters: in vivo, po, 0 mg/kg, 72 h, tissue Blood, route oral GAVAGE, dose level Control, time 3 day, vehicle .5 % CMC
compounds and their reported HEMATOCRIT
The figure you give is taken to be in %; do not add the unit.

Take a look at these entries with their results.
1. CCCCC1=NC2(CCCC2)C(=O)N1Cc1ccc(-c2ccccc2-c2nnn[nH]2)cc1	43.13
2. CCOc1nc2cccc(C(=O)O)c2n1Cc1ccc(-c2ccccc2-c2nnn[nH]2)cc1	33.58
3. COc1cc(OC)c(C(=O)CCCN2CCCC2)c(OC)c1	35.58
4. NC(=O)N1c2ccccc2CC(=O)c2ccccc21 [OXCARBAZEPINE]	36.57
5. CN1C(=O)CN=C(c2ccccc2)c2cc([N+](=O)[O-])ccc21	44.65

stdin: Which value of HEMATOCRIT has been reported for C#C[C@]1(O)CC[C@H]2[C@@H]3CCC4=CC(=O)CC[C@]4(C)[C@H]3CC[C@@]21C in the records?
stdout: 45.44

stdin: Which value of HEMATOCRIT has been reported for C[C@]12CC[C@@H]3c4ccc(O)cc4CC[C@H]3[C@@H]1C[C@@H](O)[C@@H]2O in the records?
stdout: 34.75

stdin: Which value of HEMATOCRIT has been reported for CCCNC(=O)NS(=O)(=O)c1ccc(Cl)cc1 [CHLORPROPAMIDE] in the records?
stdout: 38.08

stdin: Which value of HEMATOCRIT has been reported for CN1CCN(C2=Nc3cc(Cl)ccc3Nc3ccccc32)CC1 in the records?
stdout: 38.08

stdin: Which value of HEMATOCRIT has been reported for C[C@@](Cc1ccc(O)c(O)c1)(NN)C(=O)O.O in the records?
stdout: 36.52

stdin: Which value of HEMATOCRIT has been reported for C[C@@H]1O[C@@H](O[C@H]2C[C@@H](O)[C@]3(CO)[C@H]4[C@H](O)C[C@]5(C)[C@@H](C6=CC(=O)OC6)CC[C@]5(O)[C@@H]4CC[C@]3(O)C2)[C@H](O)[C@H](O)[C@H]1O in the records?
stdout: 33.53

stdin: Which value of HEMATOCRIT has been reported for C[C@H]1[C@H](NC(=O)/C(=N\OC(C)(C)C(=O)O)c2csc(N)n2)C(=O)N1S(=O)(=O)O in the records?
stdout: 36.52

stdin: Which value of HEMATOCRIT has been reported for CCC1=C(C)CN(C(=O)NCCc2ccc(S(=O)(=O)NC(=O)N[C@H]3CC[C@H](C)CC3)cc2)C1=O [GLIMEPIRIDE] in the records?
stdout: 35.45

====

- Organism: Rattus norvegicus
- Assay Procedure: DrugMatrix - Regimen: Daily Repeat
- Type: toxicity, organism-based, Sprague-Dawley
- Set-up: regimen Daily Repeat, gender Male, age 6-8 weeks
- Condition Parameters: in vivo, po, 0 mg/kg, 120 h, tissue Plasma, route oral GAVAGE, dose level Control, time 5 day, vehicle .5 % CMC
Decide using LIPASE: a value greater than or equal to 10 u/L is YES, a smaller one is NO.

Please review the entries below; each comes with its answer.
1) CN(C)CCN(Cc1cccs1)c1ccccn1	YES
2) C[C@@H]1O[C@@H](O[C@H]2C[C@@H](O)[C@]3(CO)[C@H]4[C@H](O)C[C@]5(C)[C@@H](C6=CC(=O)OC6)CC[C@]5(O)[C@@H]4CC[C@]3(O)C2)[C@H](O)[C@H](O)[C@H]1O	NO
3) NC(=O)N1c2ccccc2CC(=O)c2ccccc21 [OXCARBAZEPINE]	YES
4) C[C@H]1[C@H](NC(=O)/C(=N\OC(C)(C)C(=O)O)c2csc(N)n2)C(=O)N1S(=O)(=O)O	NO
5) COc1cc(OC)c(C(=O)CCCN2CCCC2)c(OC)c1	NO
6) CCCCC1=NC2(CCCC2)C(=O)N1Cc1ccc(-c2ccccc2-c2nnn[nH]2)cc1	NO

Consider now this further molecule.
stdin: Is reported LIPASE greater than or equal to 10 u/L here: COc1ccccc1[N+](=O)[O-]
stdout: NO

====

- Species on record: Rattus norvegicus
- Assay Procedure: DrugMatrix - Regimen: Daily Repeat
- Assay type: toxicity, organism-based, Sprague-Dawley
- Design: regimen Daily Repeat, gender Male, age 6-8 weeks
- Condition Parameters: in vivo, iv, 0 mg/kg, 120 h, tissue Blood, dose level Control, time 5 day, vehicle 100 % SALINE
Observation Type: ABSOLUTE SEGMENTED NEUTROPHIL (CELLS/uL)
The figure you give is taken to be in CELLS/uL; do not add the unit.

Take a look at these entries with their results.
1. N=C(N)c1ccc(OCCCCCOc2ccc(C(=N)N)cc2)cc1 [PENTAMIDINE]	1836.67
2. C[N+](C)(C)CCOC(=O)CCC(=O)OCC[N+](C)(C)C.[Cl-].[Cl-] [SUCCINYLCHOLINE CHLORIDE]	1836.67
3. COc1cccc2c1C(=O)c1c(O)c3c(c(O)c1C2=O)C[C@@](O)(C(C)=O)C[C@@H]3O[C@H]1C[C@H](N)[C@H](O)[C@H](C)O1 [DAUNORUBICIN]	730.67

Next, consider the following compound.
stdin: Which value of ABSOLUTE SEGMENTED NEUTROPHIL has been reported for O=c1[nH]c(=O)n([C@H]2C[C@H](O)[C@@H](CO)O2)cc1F [FLOXURIDINE] in the records?
stdout: 1160

====

- Species on record: Rattus norvegicus
- Assay Procedure: DrugMatrix - Regimen: Daily Repeat
- Format: toxicity, organism-based, Sprague-Dawley
- Parameters: regimen Daily Repeat, gender Male, age 6-8 weeks
- Condition Parameters: in vivo, iv, 0 mg/kg, 72 h, tissue Plasma, dose level Control, time 3 day, vehicle 100 % SALINE
compounds and their reported GLUCOSE
The reply should read as a number followed by its unit.

stdin: Which value of GLUCOSE has been reported for O=c1[nH]c(=O)n([C@H]2C[C@H](O)[C@@H](CO)O2)cc1F in the records?
stdout: 152.83 mg/dL

stdin: Which value of GLUCOSE has been reported for C[N+](C)(C)CCOC(=O)CCC(=O)OCC[N+](C)(C)C.[Cl-].[Cl-] [SUCCINYLCHOLINE CHLORIDE] in the records?
stdout: 178.33 mg/dL

stdin: Which value of GLUCOSE has been reported for O=C(O)P(=O)(O)O in the records?
stdout: 149.33 mg/dL

====

compounds and their reported LEUKOCYTE COUNT
- Organism: Rattus norvegicus
- Assay Procedure: DrugMatrix - Regimen: Daily Repeat
- Format: toxicity, organism-based, Sprague-Dawley
- Design: regimen Daily Repeat, gender Male, age 6-8 weeks
- Condition Parameters: in vivo, po, 0 mg/kg, 120 h, tissue Blood, route oral GAVAGE, dose level Control, time 5 day, vehicle 100 % WATER
The figure you give is taken to be in x10E3/uL; do not add the unit.

Take a look at these entries with their results.
1) NC12CC3CC(CC(C3)C1)C2	13.6
2) CCN(C(C)=O)c1cccc(-c2ccnc3c(C#N)cnn23)c1	13.6
3) C#Cc1cccc(Nc2ncnc3cc(OCCOC)c(OCCOC)cc23)c1	13.43
4) CN(C)C(=O)Oc1cccc([N+](C)(C)C)c1.[Br-] [NEOSTIGMINE BROMIDE]	8.73
5) NC(=O)c1cccnc1 [NIACINAMIDE]	14.6

Next, consider the following compound.
stdin: Which value of LEUKOCYTE COUNT has been reported for CCN(CC)CCNC(=O)c1ccc(N)cc1 [PROCAINAMIDE] in the records?
stdout: 11.35
